# system_name: RARγ (Homo sapiens)
# Construct: gal4 (fusion partner); expressed in transfected cells; host or cells: COS-7
# Sequence (P13631 185-419 limits assumed): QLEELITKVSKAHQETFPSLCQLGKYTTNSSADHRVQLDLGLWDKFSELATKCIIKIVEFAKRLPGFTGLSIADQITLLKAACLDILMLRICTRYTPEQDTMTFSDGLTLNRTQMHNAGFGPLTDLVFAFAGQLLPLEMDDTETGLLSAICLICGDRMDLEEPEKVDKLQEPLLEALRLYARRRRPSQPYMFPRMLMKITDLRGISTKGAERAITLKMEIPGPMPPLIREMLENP
# assay: Transactivation assay for RAR gamma (gal4-RAR fusion, luciferase reporter, COS-7 cells)
# Assay type: cell-based
# measurement_setup: ratio of test compound EC50 to that of atRA; inactive = no agonist action at the highest concentration tested
reported_property: RARγ activity ratio

I = COc1cc(C(=O)Nc2ccc(C(=O)O)cc2)cc(OC(C)C)c1Cl [AAA-118]
II = CCOc1c(Cl)cc(C(=O)Nc2ccc(C(=O)O)c(O)c2)cc1OCC1CC1 [AAA-090]
III = Cc1cc(NC(=O)c2cc(OC(C)C)c(Br)c(OC(C)C)c2)ccc1C(=O)O [AAA-111]
q: Arrange the 3 compounds by rising RARγ activity ratio, starting with the smallest. The reply should contain the labels ordered as requested.
a: III, II, I
(III: 50000, II: 367000, I: 933333)
